Listing of entries alongside the reported GI50.
- System: U-251
- Experiment notes: NCI tumour cell line growth inhibition, 48 h
Active and inactive are the calls of the source. Cut-off read from the data, not from the text of the source: active = GI50 up to about 1.1 µM and inactive = higher.

[
  {
    "Smiles structure": "O=C(NNC(=S)NCc1ccccc1)c1csc(NC(=S)NC2CCCCC2)n1",
    "GI50": "33.3 µM (inactive)"
  },
  {
    "Smiles structure": "N#Cc1c(N)nc(Nc2cccc3ccccc23)c(C#N)c1C#N",
    "GI50": "4.71 µM (inactive)"
  },
  {
    "Smiles structure": "CCn1c(=O)c2c3cc(O)ccc3oc2c2ccc(O)cc21",
    "GI50": "22.9 µM (inactive)"
  },
  {
    "Smiles structure": "CC(C)OP(=O)(OC(C)C)/C(=N/Nc1ccc([N+](=O)[O-])cc1)Nc1ccc(N/C(=N\\Nc2ccc([N+](=O)[O-])cc2)P(=O)(OC(C)C)OC(C)C)cc1",
    "GI50": "13.2 µM (inactive)"
  }
]

* * *

- System: SNB-75
- Experiment notes: NCI tumour cell line growth inhibition, 48 h
Calls of active or inactive are those of the source. No stated cut-off is given here; in the data, active = GI50 up to about 1.1 µM and inactive = higher.
Listed here: items and their measured GI50.

[
  {
    "Molecule": "O=c1[nH]c(=O)n(C2CC(O)C(COP(=O)(O)OC3CC(n4cc(F)c(=O)[nH]c4=O)OC3COP(=O)(O)OC3CC(n4cc(F)c(=O)[nH]c4=O)OC3COP(=O)(O)OC3CC(n4cc(F)c(=O)[nH]c4=O)OC3COP(=O)(O)OC3CC(n4cc(F)c(=O)[nH]c4=O)OC3COP(=O)(O)OC3CC(n4cc(F)c(=O)[nH]c4=O)OC3COP(=O)(O)OC3CC(n4cc(F)c(=O)[nH]c4=O)OC3COP(=O)(O)OC3CC(n4cc(F)c(=O)[nH]c4=O)OC3COP(=O)(O)OC3CC(n4cc(F)c(=O)[nH]c4=O)OC3COP(=O)(O)OC3CC(n4cc(F)c(=O)[nH]c4=O)OC3CO)O2)cc1F (configuration not stated)",
    "GI50": "0.353 µM (active)"
  },
  {
    "Molecule": "COC(=O)c1c(O)ccc2c1c1c(n2Cc2ccccc2)C(=O)c2ccccc2C1=O",
    "GI50": "15.6 µM (inactive)"
  },
  {
    "Molecule": "CN(C)CCC[N+]1=Nc2cccc3cccc(c23)N1",
    "GI50": "> 100 µM (inactive)"
  },
  {
    "Molecule": "CCOC(=O)/C(C#N)=C/c1coc2cc(C)cc(C)c2c1=O",
    "GI50": "> 100 µM (inactive)"
  },
  {
    "Molecule": "CN(/N=C/C=N/N(C)C1=NCCN1)C1=NCCN1",
    "GI50": "> 100 µM (inactive)"
  },
  {
    "Molecule": "COc1ccc(C2[C@@H](Cl)C(=O)N2c2ccc(OC)cc2)cc1 (some centres not stated)",
    "GI50": "15.1 µM (inactive)"
  },
  {
    "Molecule": "O=C(O)C1(Cc2ccccc2)Cc2cc3c(cc2C1)CCC3",
    "GI50": "> 100 µM (inactive)"
  },
  {
    "Molecule": "N#C/C(=C/NC(N)=S)C(N)=O",
    "GI50": "> 100 µM (inactive)"
  },
  {
    "Molecule": "CC(C)=CC(=O)CC(=O)C(=O)NCCNC(=O)C(=O)CC(=O)C=C(C)C",
    "GI50": "> 50 µM (inactive)"
  },
  {
    "Molecule": "O=C(Nc1nc2ncn(CCO)c2c(=S)[nH]1)c1ccccc1",
    "GI50": "> 100 µM (inactive)"
  },
  {
    "Molecule": "C#CCNC(=O)NCCCC(NC(C)=O)C(=O)NCc1ccccc1 (configuration not stated)",
    "GI50": "> 100 µM (inactive)"
  },
  {
    "Molecule": "COc1ccc(C(=O)O/N=C2\\CCCC\\C2=C/c2ccccc2)cc1",
    "GI50": "28.4 µM (inactive)"
  },
  {
    "Molecule": "COc1ccc2nc(-c3ccc(N)cc3)sc2c1",
    "GI50": "44.8 µM (inactive)"
  },
  {
    "Molecule": "C=C(C)C(O)CCC1(C)C=Cc2c(c(C)cc3c2[nH]c2ccccc23)O1 (configuration not stated)",
    "GI50": "3.3 µM (inactive)"
  },
  {
    "Molecule": "O=C(CCC(=O)Nc1ccc(Cl)cc1)CC(=O)c1ccc2ccccc2c1",
    "GI50": "> 100 µM (inactive)"
  },
  {
    "Molecule": "Cc1cc(C)c2c(=N)c3ccccc3n(CCCCCCCCn3c4ccccc4c(=N)c4c(C)cc(C)nc43)c2n1",
    "GI50": "0.596 µM (active)"
  },
  {
    "Molecule": "Nc1ccc2n[se]nc2c1",
    "GI50": "> 100 µM (inactive)"
  },
  {
    "Molecule": "C=C1C[C@@H]2O[C@H]3[C@H]4[C@@H](C[C@@H](C)[C@@H](OC(C)=O)[C@H]42)[C@@H](C)CO[C@@]3(C)[C@H](OC(C)=O)C[C@H]1O",
    "GI50": "84.3 µM (inactive)"
  },
  {
    "Molecule": "CC(C)(C)[Si](C)(C)OCCC1CC2(S(=O)(=O)C3=CC=C=C=C3)ON1CC2S(=O)(=O)c1ccccc1 (configuration not stated)",
    "GI50": "> 10 µM (inactive)"
  },
  {
    "Molecule": "COC(=O)/C(C#N)=C1\\CCC(O)N1 (configuration not stated)",
    "GI50": "> 100 µM (inactive)"
  },
  {
    "Molecule": "O=C1C=C(N2CCN(CCOCCO)CC2)C(=O)c2c(O)ccc(O)c21",
    "GI50": "16.6 µM (inactive)"
  },
  {
    "Molecule": "C#Cc1ccccc1N1C(=O)C=CC1=O",
    "GI50": "> 100 µM (inactive)"
  },
  {
    "Molecule": "CC(=O)O[C@H]1C(=O)[C@@]2(C)[C@H]([C@H](OC(=O)c3ccoc3)[C@]3(O)C[C@H](OC(=O)[C@H](O)[C@@H](NC(=O)c4ccccc4)c4ccccc4)C(C)=C1C3(C)C)[C@]1(OC(C)=O)CO[C@@H]1C[C@@H]2O",
    "GI50": "0.141 µM (active)"
  },
  {
    "Molecule": "C[N+](C)(C)CC1CCCCC1=O (configuration not stated)",
    "GI50": "20.5 µM (inactive)"
  },
  {
    "Molecule": "Cc1cc(NCCCCCCNc2cc(C)nc3cc(N(C)C)ccc23)c2ccc(N(C)C)cc2n1",
    "GI50": "10 µM (inactive)"
  },
  {
    "Molecule": "O=C1Cc2c(-c3ccccc3)cc(-c3ccc4ccccc4c3)nc2-c2ccccc2N1",
    "GI50": "0.307 µM (active)"
  },
  {
    "Molecule": "Cc1c(C(=O)C/C(=N\\O)C(=O)Nc2cc(Cl)c(Cl)cc2Cl)[n+]([O-])c2ccccc2[n+]1[O-]",
    "GI50": "33.2 µM (inactive)"
  }
]

* * *

- System: NCI/ADR-RES
- Experiment notes: NCI tumour cell line growth inhibition, 48 h
Active and inactive are the calls of the source. No stated cut-off is given here; in the data, active = GI50 up to about 1.1 µM and inactive = higher.
Labels: true (1) = active, false (0) = inactive

[
  {
    "Molecule": "COC(=O)C1ON2C(C1C(=O)OC)C(C)(C)N(O)C2(C)C (stereo not given)",
    "Cat": "false (0)"
  },
  {
    "Molecule": "O=C(NCP(=O)(Oc1ccccc1)Oc1ccccc1)OCc1ccccc1",
    "Cat": "false (0)"
  },
  {
    "Molecule": "CO[C@H](C)[C@](O)(C(=O)OCC1=CCN2CC[C@@H](O)[C@H]12)C(C)C",
    "Cat": "false (0)"
  },
  {
    "Molecule": "O=C(NCCC1CNc2ccccc21)OCc1ccccc1 (stereo not given)",
    "Cat": "false (0)"
  },
  {
    "Molecule": "CCCc1c2c3ccccc3nc-2nc2ccccn12",
    "Cat": "false (0)"
  },
  {
    "Molecule": "CC(=O)O[C@H]1C(=O)[C@@]2(C)C(C(OC(=O)c3ccccc3)[C@]3(O)CC(OC(=O)C(O)C(NC(=O)c4ccccc4)c4ccc(F)cc4)C(C)=C1C3(C)C)[C@]1(OC(C)=O)CO[C@@H]1C[C@@H]2O (stereo not given in full)",
    "Cat": "true (1)"
  },
  {
    "Molecule": "O=C1CC2CC(CC3(CO3)C2)C1F (stereo not given)",
    "Cat": "false (0)"
  },
  {
    "Molecule": "CC1(F)C=CC(=O)C=C1",
    "Cat": "false (0)"
  },
  {
    "Molecule": "C=C1C(=O)O[C@@H]2[C@H](O)[C@@H](C)[C@@H]3C=CC(=O)[C@@]3(C)[C@H](OC(=O)C=C(C)C)[C@H]12",
    "Cat": "true (1)"
  },
  {
    "Molecule": "CCOC(=O)C#Cc1cccc(C#CC(=O)OCC)c1",
    "Cat": "false (0)"
  },
  {
    "Molecule": "O=C(O)CCc1c2ccc(=O)c(O)c-2oc2c(O)c(O)ccc12",
    "Cat": "false (0)"
  },
  {
    "Molecule": "CC(O)CCCOC(c1ccccc1)(c1ccccc1)c1ccccc1 (stereo not given)",
    "Cat": "false (0)"
  },
  {
    "Molecule": "COC(=O)NC1(NC(=O)OC)NC(=O)c2cc(OC)c(OC)cc2N1",
    "Cat": "false (0)"
  },
  {
    "Molecule": "CN1C(=O)N/C(=C\\c2ccc(S(=O)(=O)N/N=C\\C(O)C(O)C(O)CO)cc2)C1=O (stereo not given)",
    "Cat": "false (0)"
  },
  {
    "Molecule": "O=C(O)c1c(-c2ccccc2)c(=O)[nH]c2ccccc12",
    "Cat": "false (0)"
  },
  {
    "Molecule": "O=C(O)[C@H]1[C@@H](C2CCCCC2)O[C@@H](C2CCCCC2)O[C@H]1C(F)(F)F",
    "Cat": "false (0)"
  },
  {
    "Molecule": "O=C(NNC(=S)NCc1ccccc1)c1csc(NC(=S)NC2CCCCC2)n1",
    "Cat": "false (0)"
  },
  {
    "Molecule": "Cc1cc(C)c2c(=O)n(CC(O)CN3CCN(CCOCCO)CC3)sc2n1 (stereo not given)",
    "Cat": "false (0)"
  },
  {
    "Molecule": "COC(=O)c1ccc(/N=N/N(C)COc2ccc(C#N)cc2)cc1",
    "Cat": "false (0)"
  },
  {
    "Molecule": "COc1cc2[nH]c(=O)c3cc(C)cc4c(Cl)nc(c1OC)c2c43",
    "Cat": "false (0)"
  },
  {
    "Molecule": "C=CC1ON(C)CCc2cc(OC)c(OC)cc21 (stereo not given)",
    "Cat": "false (0)"
  },
  {
    "Molecule": "O=C1C=C(N2CCN(CCOCCO)CC2)C(=O)c2c(O)ccc(O)c21",
    "Cat": "false (0)"
  },
  {
    "Molecule": "Cc1ccc(N/C(=C(/C(Cl)=C(Cl)Cl)[N+](=O)[O-])n2nnc3ccccc32)cc1",
    "Cat": "false (0)"
  },
  {
    "Molecule": "CCOC(=O)C(=O)/C(=C/NC(=S)c1ccncc1)C(=O)OCC",
    "Cat": "false (0)"
  },
  {
    "Molecule": "Cc1cnoc1NS(=O)(=O)c1ccc(Nc2nnc(/C=C/c3c(O)ccc4ccccc34)c(=O)n2N)cc1",
    "Cat": "false (0)"
  },
  {
    "Molecule": "O=c1c2ccccc2nc(Nc2cccc(Cl)c2)n1/N=C/C=C/c1ccccc1",
    "Cat": "false (0)"
  },
  {
    "Molecule": "COc1ccc(OC)c(-c2nc(O)c3ccccc3n2)c1",
    "Cat": "false (0)"
  },
  {
    "Molecule": "O=C1C=CC(=O)C(CNc2ccc(C(=O)OC34CC5CC(CC(C5)C3)C4)cc2)=C1Br",
    "Cat": "false (0)"
  },
  {
    "Molecule": "Cc1c(-c2ccccc2)oc(=O)c2ccccc12",
    "Cat": "false (0)"
  },
  {
    "Molecule": "COC(=O)C1=C(O)C(C(=O)OC)[C@]2(O)[C@H](C(=O)OC)[C@H]1C[C@@H](c1c(Cl)cccc1Cl)[C@H]2C(=O)OC (stereo not given in full)",
    "Cat": "false (0)"
  }
]
